Would you mind telling me the reported Activity of each entry?
tested on: Mus musculus; assay: Hypothermic activity in Harlan ICR mouse assessed as change in rectal temperature at 77 umol/kg, iv at 30 mins; type: functional
Answers are plain numbers, in %.

>  <substanceSmiles>
CCCn1cc(C(=O)c2cccc3cccc(Br)c23)c2ccccc21

>  <measuredOn>
Mus musculus

>  <unitText>
%

>  <Activity>
-2

$$$$

Need Activity for each of these compounds.
1. CCCCCn1c(C)c(C(=O)c2cccc3cccc(Cl)c23)c2ccccc21
2. CCCCCn1c(C)c(C(=O)c2ccc(Cl)c3ccccc23)c2ccccc21
3. CCCn1cc(C(=O)c2ccc(Br)c3ccccc23)c2ccccc21

Result:
1: -5.5; 2: -6.4; 3: -3.9
